# total protein half-life in vivo per record follows
# assay: total protein half-life in vivo (active degradation + dilution); higher = more stable protein
# assay.conditions: wild type E. coli NCM3722; growth: C-lim chemostat; doubling time 12 h
Kindly answer with a numeric value in h, unit omitted.

Which total protein half-life in vivo value is on record for MLYIFDLGNVIVDIDFNRVLGAWSDLTRIPLASLKKSFHMGEAFHQHERGEISDEAFAEALCHEMALPLSYEQFSHGWQAVFVALRPEVIAIMHKLREQGHRVVVLSNTNRLHTTFWPEEYPEIRDAADHIYLSQDLGMRKPEARIYQHVLQAEGFSPSDTVFFDDNADNIEGANQLGITSILVKDKTTIPDYFAKVLC [P0A8Y3] ?
9.46

---
Which total protein half-life in vivo value is on record for MNTLLLLAALSSQITFNTTQQGDVYTIIPEVTLTQSCLCRVQILSLREGSSGQSQTKQEKTLSLPANQPIALTKLSLNISPDDRVKIVVTVSDGQSLHLSQQWPPSSEKS ?
5.97
